Listed next: entries and their corresponding seed-corrected z-score.
# measurement notes: Identification of proteins required for the processing of the EWS-FLI1 nascent transcript;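 note: robust z of luciferase light less the median z of siRNAs with the same seed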
# test context: TC32 Ewing sarcoma NR0B1-luc vs CMV-luc (EWS-FLI1 target promoter against control promoter), 48 h; screened at 20 nM (by protocol)
# Experimental: Ewing sarcoma (ES) cells depend on the EWS-FLI1 fusion transcription factor for cell survival. […] Luciferase activity was assessed 48 hours post siRNA-transfection. Twenty microl of serum-free media containing Lipofectamine RNAiMax (0.05 microl) was added to wells containing siRNA (0.8 pmol). […] Luciferase expression was measured using OneGlo (Promega, Madison, WI). […]
The full ranking holds about 59,000 sequences; the median of the read-out is about -0.00055, and the lowest 2% start at about -2. This excerpt belongs to a sample that is enriched for the lowest values.
Reply with the value as a number alone.

Reference set, count: 4
Query: Requested field: seed-corrected z-score. Item: UAGUGGAUAUAUCUCGGCC against YLPM1
Reply: 0.196

Query: Field entry: AAGAUAAUAAAAACGUAGG against SLC2A14
Reply: 0.0262

Query: Now give it for UGAUCUUGAACUGCACCAC against SUMO3 too.
Reply: -0.708

Query: What would you report for UAAGCUAUUUCCUCGGCUC against MTCH2 ?
Reply: 0.402

Continuing:
Query: For AUAGAGGUGAGGGUCAUGC against TGFBI , what is its reported seed-corrected z-score?
Reply: -2.38

Query: Follow-up entry: AUGCUUAUAGUUGUUCUUC against POU1F1
Reply: -2.19

Query: Also need AGUGGAUACAUAGCUGUCU against ZBTB45 , thanks.
Reply: -0.6

Query: Quick one: UUGAUUUCCACGUUGCAUC against SLC10A2
Reply: -2.5

Query: Next sequence: UGUUGUACCACUGUCAGAG against PPM1G
Reply: -0.406

Query: Same for UCAGGUAGAACACUUUGCU against YWHAG
Reply: 0.113

Query: What about ACAUCUGUCAGGGUCAUCG against NOD1 ?
Reply: -0.0205

Query: And for AAUGGUGUCAGUUCCUCUG against ETFA ?
Reply: 0.854
